Data provenance: ChEMBL document CHEMBL3433997

Below is a list of entries, each paired with its recorded inhibition value.
- SYSTEM_UNDER_TEST: Glucose transporter (Leishmania mexicana) (UniProt O61059)
- EXPERIMENTAL_DETAILS: ST_JUDE_LEISH: Cytotoxicity at 2uM final concentration against transgenic Leishmania Mexicana promastigotes LmGT2 that are glucose transport deficient and complemented with the L. Mexicana glucose transporter 2. Activity is measured by DNA content using SYBR green in vitro
- Assay type: functional
RECORDED_ENDPOINT: inhibition (%)

[[record]]
molecule = "O=C(/C=C/c1ccc(Cl)c(Cl)c1)N1CCC(CCN2CCC(c3c[nH]c4cc5c(cc34)OCO5)CC2)CC1"
recorded_endpoint = "inhibition"
numeric_value = -0.27

[[record]]
molecule = "CC(=O)c1cccc(NC(=O)NC2CCN(c3ccnc(Nc4ccc(F)cc4)n3)C2)c1 (centres undefined)"
recorded_endpoint = "inhibition"
numeric_value = -0.03

[[record]]
molecule = "O=C(Nc1ccc(Cl)c(C(F)(F)F)c1)Nc1ccc(Cl)c(C(F)(F)F)c1"
recorded_endpoint = "inhibition"
numeric_value = 2.07

[[record]]
molecule = "Cc1ccccc1/N=C1\\NC(=S)N(c2cccc(C(F)(F)F)c2)C12CCC(C(C)(C)C)CC2 (centres undefined)"
recorded_endpoint = "inhibition"
numeric_value = 2.58

[[record]]
molecule = "CS(=O)(=O)c1ccc(CCNCc2ccc(-c3ccc(CN(C(=O)C4CC(=O)c5ccccc54)C4CCN(Cc5ccccc5)CC4)cc3)nc2)cc1 (centres undefined)"
recorded_endpoint = "inhibition"
numeric_value = 2.34

[[record]]
molecule = "Cc1ccc(NC(=O)c2ccnc(N3CCN(c4ccncc4)CC3)c2)cc1F"
recorded_endpoint = "inhibition"
numeric_value = 4.05

[[record]]
molecule = "O=C(NCCCCN1CCC(c2ccc3c(c2OCCO)CCCC3)CC1)c1ccc(-c2ccc(C(F)(F)F)cc2)cc1"
recorded_endpoint = "inhibition"
numeric_value = 5.23

[[record]]
molecule = "O=C(Nc1ccc2c(c1)CN(Cc1ccc(N3CCCC3)o1)CCC2)c1ccoc1"
recorded_endpoint = "inhibition"
numeric_value = 2.73

[[record]]
molecule = "CO/C(=C\\C=C\\c1cc2cc(Cl)c(Cl)cc2[nH]1)C(=O)NCCCN1CC(C)N(C)CC1C (centres undefined)"
recorded_endpoint = "inhibition"
numeric_value = 6.63

[[record]]
molecule = "CCc1c(CCNCCCCCCNCc2ccc3c(c2CC)OCO3)ccc(OC)c1OC"
recorded_endpoint = "inhibition"
numeric_value = 4.01

[[record]]
molecule = "Fc1ccc2[nH]c(-c3ccc(-c4ccc(CNCC5CCCO5)cc4)cc3)nc2c1 (centres undefined)"
recorded_endpoint = "inhibition"
numeric_value = 7.73

[[record]]
molecule = "CC1CCCN1Cc1ccc(-c2ccc3c(=O)cc(CCc4cccc(F)c4F)n(CC(=O)N(C)Cc4ccc(-c5ccc(C(F)(F)F)cc5)cc4)c3n2)cc1 (centres undefined)"
recorded_endpoint = "inhibition"
numeric_value = 10.4

[[record]]
molecule = "COc1ccc(S(=O)(=O)Nc2cc(C)cc(Br)c2OC)cc1N1CCN(C(=O)C(Cl)(Cl)Cl)CC1"
recorded_endpoint = "inhibition"
numeric_value = -0.68

[[record]]
molecule = "Clc1ccc(Nc2nc(NCc3ccccc3)nc(N/N=C/c3ccccn3)n2)cc1"
recorded_endpoint = "inhibition"
numeric_value = 77.6

[[record]]
molecule = "O=C(Nc1ccc(Cl)cc1)c1cccc2nc(C(F)(F)F)[nH]c12"
recorded_endpoint = "inhibition"
numeric_value = 5.94

[[record]]
molecule = "Clc1ccc(-c2csc3ncnc(Cl)c23)cc1"
recorded_endpoint = "inhibition"
numeric_value = 4.02

[[record]]
molecule = "COc1ccc2nccc([C@@H](O)CN3CCC(NCc4ccc5c(n4)NC(=O)CS5)C(F)C3)c2c1 (some centres undefined)"
recorded_endpoint = "inhibition"
numeric_value = 1.99

[[record]]
molecule = "CC(C)NC(C)(C)CN(Cc1ccc(-c2ccc(C(F)(F)F)cc2)cc1)C(=O)Cn1c(CCc2cccc(F)c2F)nc(=O)c2ccccc21"
recorded_endpoint = "inhibition"
numeric_value = -0.1

[[record]]
molecule = "Cc1nc2nc(N)nc(N)c2c(C)c1Cc1ccc(C#N)cc1"
recorded_endpoint = "inhibition"
numeric_value = -0.44

[[record]]
molecule = "O=C(Nc1ccccc1)N(Cc1cccc(-c2ccc(CNCc3ccc4c(c3)OCO4)cc2)c1)C1CCN(Cc2ccccc2)CC1"
recorded_endpoint = "inhibition"
numeric_value = 2.52

[[record]]
molecule = "COc1ccc2nccc([C@@H](O)CN3CCC(NCc4ccc5cccc(O)c5n4)CC3)c2c1"
recorded_endpoint = "inhibition"
numeric_value = 3.46

[[record]]
molecule = "CN(C)c1ccc(-c2ccc(C(=O)NC3CCN(Cc4ccc(F)cc4)CC3)s2)cc1"
recorded_endpoint = "inhibition"
numeric_value = 3.76

[[record]]
molecule = "CCOc1ccc(NC(=O)c2ccc(CN3CCCN(Cc4cccc(O)c4)CC3)cc2)cc1"
recorded_endpoint = "inhibition"
numeric_value = 4.11

[[record]]
molecule = "COc1ccc2cc(C(C)NC3CCN(c4cccc(NC(=O)c5ccncc5)c4)CC3)ccc2c1 (centres undefined)"
recorded_endpoint = "inhibition"
numeric_value = -1.47


* * *

- SYSTEM_UNDER_TEST: Hexose transporter 1 (Plasmodium falciparum) (UniProt O97467)
- EXPERIMENTAL_DETAILS: ST_JUDE_LEISH: Cytotoxicity at 2uM final concentration against transgenic Leishmania Mexicana promastigotes LmPfHT that are glucose transport deficient and complemented with the Plasmodium falciparum hexose transporter. Activity is measured by DNA content using SYBR green in vitro
- Assay type: functional
RECORDED_ENDPOINT: inhibition

[[record]]
compound = "CN(C)c1nc(NCc2ccccc2)nc(N/N=C/c2cc([N+](=O)[O-])ccc2O)n1"
system_under_test = "Hexose transporter 1 (Plasmodium falciparum) (UniProt O97467)"
result = "-1.79%"

[[record]]
compound = "COc1ccc2nc(Nc3nc(-c4ccccn4)cs3)sc2c1"
system_under_test = "Hexose transporter 1 (Plasmodium falciparum) (UniProt O97467)"
result = "16%"

[[record]]
compound = "CN(Cc1cccc(O)c1)C1CCCN(c2cc(NC(=O)c3ccc(F)cc3)ccn2)C1 (configuration not stated)"
system_under_test = "Hexose transporter 1 (Plasmodium falciparum) (UniProt O97467)"
result = "6.05%"

[[record]]
compound = "Cc1ccccc1C1CCN(C2CCC(NC(=O)/C=C/c3ccc(C(F)(F)F)cc3F)CC2)CC1 (configuration not stated)"
system_under_test = "Hexose transporter 1 (Plasmodium falciparum) (UniProt O97467)"
result = "0.43%"

[[record]]
compound = "O=C(/C=C/c1ccc(Cl)cc1)NCCCCCN1CCN(C(=O)Nc2ccc(Cl)c(C(F)(F)F)c2)CC1"
system_under_test = "Hexose transporter 1 (Plasmodium falciparum) (UniProt O97467)"
result = "5%"

[[record]]
compound = "CC(=O)Nc1ncc(C(=O)Nc2cccc(-c3ccc(-c4nc5cccc(C)c5[nH]4)cc3)c2)s1"
system_under_test = "Hexose transporter 1 (Plasmodium falciparum) (UniProt O97467)"
result = "0.54%"

[[record]]
compound = "Cc1cccc2nc(-c3cccc(-c4cccc(CNCC5CCCO5)c4)c3)[nH]c12 (configuration not stated)"
system_under_test = "Hexose transporter 1 (Plasmodium falciparum) (UniProt O97467)"
result = "0.17%"


* * *

- SYSTEM_UNDER_TEST: Hexose transporter 1 (Plasmodium falciparum)
- EXPERIMENTAL_DETAILS: ST_JUDE_LEISH: Cytotoxicity at 2uM final concentration against transgenic Leishmania Mexicana promastigotes LmPfHT that are glucose transport deficient and complemented with the Plasmodium falciparum hexose transporter. Activity is measured by DNA content using SYBR green in vitro
- Format: functional
RECORDED_ENDPOINT: inhibition (%)

[[record]]
compound = "N#Cc1cccc(C(=O)Nc2ccc(-c3ccc(CN4CCCC4)cc3)cc2)c1"
system_under_test = "Hexose transporter 1 (Plasmodium falciparum)"
recorded_endpoint = "inhibition"
unit_tag = "%"
numeric_value = 6.53

[[record]]
compound = "CCCNc1nc(NCc2c(C)cccc2C)nc(NC(C)(C)C)n1"
system_under_test = "Hexose transporter 1 (Plasmodium falciparum)"
recorded_endpoint = "inhibition"
unit_tag = "%"
numeric_value = 8.23

[[record]]
compound = "COc1ccc(CNCc2ccc(-c3ccc(-c4nc5cc(F)ccc5[nH]4)cc3)cc2)cc1"
system_under_test = "Hexose transporter 1 (Plasmodium falciparum)"
recorded_endpoint = "inhibition"
unit_tag = "%"
numeric_value = 5.38

[[record]]
compound = "O=C(NC(c1ccccc1)c1ccc2cccnc2c1O)c1ccccc1 (centres undefined)"
system_under_test = "Hexose transporter 1 (Plasmodium falciparum)"
recorded_endpoint = "inhibition"
unit_tag = "%"
numeric_value = 6.18

[[record]]
compound = "CC1(C)[C@H]2CC[C@@H](CNc3nc(NCC(=O)Nc4ccc5ccccc5c4)nc(N4CCC(N5CCCC5)CC4)n3)[C@@H]1C2"
system_under_test = "Hexose transporter 1 (Plasmodium falciparum)"
recorded_endpoint = "inhibition"
unit_tag = "%"
numeric_value = 2.52

[[record]]
compound = "c1ccc(CN2CCC(NCc3ccc(-c4cncc5ccccc45)cc3)CC2)cc1"
system_under_test = "Hexose transporter 1 (Plasmodium falciparum)"
recorded_endpoint = "inhibition"
unit_tag = "%"
numeric_value = -2.18

[[record]]
compound = "CN(c1ccccc1C(=O)Nc1ccccc1Oc1ccccc1)S(=O)(=O)c1ccccc1"
system_under_test = "Hexose transporter 1 (Plasmodium falciparum)"
recorded_endpoint = "inhibition"
unit_tag = "%"
numeric_value = 0.41

[[record]]
compound = "Cc1ccccc1/N=C1\\NC(=S)N(c2cccc(C(F)(F)F)c2)C12CCC(C(C)(C)C)CC2 (centres undefined)"
system_under_test = "Hexose transporter 1 (Plasmodium falciparum)"
recorded_endpoint = "inhibition"
unit_tag = "%"
numeric_value = 2.68

[[record]]
compound = "Oc1cccc(Nc2ccnc3cc(-c4cc5ccccc5o4)ccc23)c1"
system_under_test = "Hexose transporter 1 (Plasmodium falciparum)"
recorded_endpoint = "inhibition"
unit_tag = "%"
numeric_value = -0.27

[[record]]
compound = "CN1CCC(NCc2ccc(-c3cccc(S(=O)(=O)NCc4ccccc4)c3)cc2)CC1"
system_under_test = "Hexose transporter 1 (Plasmodium falciparum)"
recorded_endpoint = "inhibition"
unit_tag = "%"
numeric_value = 3.01

[[record]]
compound = "COc1ccc(C2CC(=O)C3=C(C2)NC(C)=C(C(=O)OC2CCCC2)C3c2ccc(O)cc2)cc1OC (centres undefined)"
system_under_test = "Hexose transporter 1 (Plasmodium falciparum)"
recorded_endpoint = "inhibition"
unit_tag = "%"
numeric_value = 0.53

[[record]]
compound = "Cc1cc(N)c2cc(NC(=O)c3cc4ccccc4s3)ccc2n1"
system_under_test = "Hexose transporter 1 (Plasmodium falciparum)"
recorded_endpoint = "inhibition"
unit_tag = "%"
numeric_value = -1.3

[[record]]
compound = "c1cc(CN2CCN(c3ccncc3)CC2)cc(-c2cccc(-c3nc4ccccc4[nH]3)c2)c1"
system_under_test = "Hexose transporter 1 (Plasmodium falciparum)"
recorded_endpoint = "inhibition"
unit_tag = "%"
numeric_value = 2.34

[[record]]
compound = "CCCCCC(NCCCC)c1ccc(OCCOc2ccc(C(CCCCC)NCCCC)cc2)cc1 (centres undefined)"
system_under_test = "Hexose transporter 1 (Plasmodium falciparum)"
recorded_endpoint = "inhibition"
unit_tag = "%"
numeric_value = 86

